Target: T1, CD3 on monkey T cells (monkey splenocytes) (monkey)
T1 construct: whole, on cells; The target is printed as 'monkey T cells'
Test: flow cytometry on monkey splenocytes, 1 µg antibody per 10^6 cells in 100 µl, PE anti-human IgG detection
Protocol: Specifically, monkey splenocytes were prepared at 10⁶ cells in 100 μl FACS solution per antibody sample, and then 1 μg of antibody was used to treat the cells. The resultant was stored for 25 minutes in the dark at 4° C. Subsequently, treatment with 3 ml of FACS buffer was performed, and centrifugation was performed at 2,000 rpm for 3 minutes. Then, the supernatant was discarded. […]
Each entry gets 0 if its Mean : Comp-PE-A stays under 6000, and 1 if its Mean : Comp-PE-A is 6000 or above.

| BINDER | LABEL_CLASS |
| --- | --- |
| C15 (antibody, human IgG1, lambda, L234A L235A, V domains shown, humanized SP34 IgG1, lambda) VH: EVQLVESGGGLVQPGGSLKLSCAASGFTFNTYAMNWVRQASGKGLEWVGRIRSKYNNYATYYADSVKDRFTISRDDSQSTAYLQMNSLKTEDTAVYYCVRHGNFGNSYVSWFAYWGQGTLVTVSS VL: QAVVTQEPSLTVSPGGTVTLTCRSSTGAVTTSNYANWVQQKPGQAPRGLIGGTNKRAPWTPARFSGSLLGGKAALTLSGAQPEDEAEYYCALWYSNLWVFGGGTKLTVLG | 1 |

Record C07 (antibody, human IgG1, lambda, L234A L235A, V domains shown, humanized SP34 IgG1, lambda; also called C7) VH: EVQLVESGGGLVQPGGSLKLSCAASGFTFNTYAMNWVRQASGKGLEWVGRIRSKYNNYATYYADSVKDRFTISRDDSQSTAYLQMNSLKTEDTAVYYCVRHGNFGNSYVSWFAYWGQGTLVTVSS VL: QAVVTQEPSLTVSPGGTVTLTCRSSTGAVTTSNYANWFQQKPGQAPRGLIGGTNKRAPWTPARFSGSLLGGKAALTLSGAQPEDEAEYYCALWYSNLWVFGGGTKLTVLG ; criterion: Mean : Comp-PE-A no lower than 6000. Met?
0

Record G15 (antibody, human IgG1, lambda, L234A L235A, V domains shown, humanized SP34 IgG1, lambda) VH: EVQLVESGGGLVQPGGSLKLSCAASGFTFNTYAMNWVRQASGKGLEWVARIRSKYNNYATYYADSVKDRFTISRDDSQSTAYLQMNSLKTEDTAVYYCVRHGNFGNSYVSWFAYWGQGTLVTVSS VL: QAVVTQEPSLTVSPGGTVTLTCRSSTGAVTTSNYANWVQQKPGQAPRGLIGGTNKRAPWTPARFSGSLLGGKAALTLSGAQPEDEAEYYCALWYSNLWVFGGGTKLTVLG ; criterion: Mean : Comp-PE-A no lower than 6000. Met?
1

Record C08 (antibody, human IgG1, lambda, L234A L235A, V domains shown, humanized SP34 IgG1, lambda; also called C8) VH: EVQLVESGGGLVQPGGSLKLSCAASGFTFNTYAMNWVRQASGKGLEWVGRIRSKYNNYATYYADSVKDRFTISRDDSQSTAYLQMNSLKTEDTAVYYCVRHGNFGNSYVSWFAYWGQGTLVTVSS VL: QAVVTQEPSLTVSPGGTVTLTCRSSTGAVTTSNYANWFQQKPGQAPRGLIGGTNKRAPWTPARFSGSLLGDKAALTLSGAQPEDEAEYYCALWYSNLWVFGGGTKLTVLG ; criterion: Mean : Comp-PE-A no lower than 6000. Met?
0

Record D08 (antibody, human IgG1, lambda, L234A L235A, V domains shown, humanized SP34 IgG1, lambda; also called D8) VH: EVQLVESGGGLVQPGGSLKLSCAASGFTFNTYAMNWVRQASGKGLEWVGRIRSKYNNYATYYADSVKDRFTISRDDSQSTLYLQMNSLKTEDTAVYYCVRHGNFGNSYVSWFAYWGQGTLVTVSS VL: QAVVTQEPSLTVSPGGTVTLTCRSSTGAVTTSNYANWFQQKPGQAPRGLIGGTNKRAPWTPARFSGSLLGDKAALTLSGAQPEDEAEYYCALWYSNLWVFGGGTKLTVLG ; criterion: Mean : Comp-PE-A no lower than 6000. Met?
0
